# target_entity: UniProt P15056
# Sequence (P15056 433-726): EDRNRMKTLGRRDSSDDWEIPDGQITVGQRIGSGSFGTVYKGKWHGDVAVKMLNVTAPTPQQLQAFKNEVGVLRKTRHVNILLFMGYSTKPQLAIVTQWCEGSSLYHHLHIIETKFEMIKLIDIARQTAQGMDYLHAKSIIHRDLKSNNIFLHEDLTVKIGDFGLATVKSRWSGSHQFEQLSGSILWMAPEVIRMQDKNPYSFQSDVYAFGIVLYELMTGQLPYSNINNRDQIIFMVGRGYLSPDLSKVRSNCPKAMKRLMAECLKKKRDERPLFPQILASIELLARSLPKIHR
# experimental_details: In vitro B-Raf kinase assay
# Type: biochemical
# experimental_conditions: [I]=1μM
quantity_measured: Inhibition rate B-Raf (%)
One number for each entry, in %.

Below: 3 compounds and their reported Inhibition rate B-Raf.
>>> observed("O=C1NC(=S)NC(=O)C1=Cc1ccc(-c2ccc(Cl)cc2[N+](=O)[O-])o1 [Compound 22n]")
20
>>> observed("O=C1NC(=S)NC(=O)C1=Cc1ccc(-c2ccc(Cl)c(C(F)(F)F)c2)o1 [Compound 22p]")
37
>>> observed("O=C1NC(=S)NC(=O)C1=Cc1ccc(-c2cccc(C(F)(F)F)c2)o1 [Compound 22l]")
30

Now let's try a different one.
[ask] Fill in Inhibition rate B-Raf for O=C1NC(=S)NC(=O)C1=Cc1ccc(-c2ccc(Cl)cc2C(F)(F)F)o1 [Compound 22o] tested with UniProt P15056.
[reply] 24
